tested.on: AR W741C (Homo sapiens, UniProt P10275, W742C)
assay.remarks: Transcription assay (ARE-luciferase reporter) in CV-1 cells, AR W741C
Type: cell-based
Design: expressed in transfected cells; host or cells: CV-1
protocol.conditions: in competition with 200 nM DHT
Method: Twenty-four hours prior to transfection, CV-1 cells were seeded at a density of 45,000 cells per well in 24-well cell culture plates and grown in phenol red free Dulbecco's Modified Eagle Medium (DMEM) supplemented with 10% cosmic calf serum (COS). […] Dose-response data was analyzed by nonlinear regression analysis using GraphPad Prism.
assay.endpoint: Antagonist efficacy (RLU value at IC50), AR W741C

CC(O)(CS(=O)(=O)c1ccccc1-c1ccccc1O)C(=O)Nc1ccc(C#N)c(C(F)(F)F)c1 (stereo not shown) [PAN41]	(50% ± 1.0%)
CN(C)CCCOc1cccc(-c2ccccc2S(=O)(=O)CC(C)(O)C(=O)Nc2ccc(C#N)c(C(F)(F)F)c2)c1 (stereo not shown) [PAN52]	(50% ± 1.0%)

----------
tested.on: AR W741C (Homo sapiens, UniProt P10275, W742C)
assay.remarks: Competitive binding assay, [3H]DHT, transfected COS-7 cells, AR W741C
protocol.conditions: 75 nM [3H]-DHT, read-out: Binding affinity (Ki), AR W741C
assay.endpoint: Ki

Record excerpt, results attached:
CN(C)CCCOc1ccc(-c2ccccc2S(=O)(=O)CC(C)(O)C(=O)Nc2ccc(C#N)c(C(F)(F)F)c2)cc1 (stereo not shown)	2.62 µM
CN(C)CCCOc1cccc(Cc2ccccc2S(=O)(=O)CC(C)(O)C(=O)Nc2ccc(C#N)c(C(F)(F)F)c2)c1 (stereo not shown)	9.8 µM
CN(C)CCCOc1ccccc1Cc1ccccc1S(=O)(=O)CC(C)(O)C(=O)Nc1ccc(C#N)c(C(F)(F)F)c1 (stereo not shown)	16 µM

Q. Which Ki value belongs to CN(C)CCCOc1cccc(-c2ccccc2S(=O)(=O)CC(C)(O)C(=O)Nc2ccc(C#N)c(C(F)(F)F)c2)c1 (stereo not shown) ?
A. 7.3 µM

----------
tested.on: AR W741L (Homo sapiens, UniProt P10275, W742L)
Sequence (P10275 1-920 W742L): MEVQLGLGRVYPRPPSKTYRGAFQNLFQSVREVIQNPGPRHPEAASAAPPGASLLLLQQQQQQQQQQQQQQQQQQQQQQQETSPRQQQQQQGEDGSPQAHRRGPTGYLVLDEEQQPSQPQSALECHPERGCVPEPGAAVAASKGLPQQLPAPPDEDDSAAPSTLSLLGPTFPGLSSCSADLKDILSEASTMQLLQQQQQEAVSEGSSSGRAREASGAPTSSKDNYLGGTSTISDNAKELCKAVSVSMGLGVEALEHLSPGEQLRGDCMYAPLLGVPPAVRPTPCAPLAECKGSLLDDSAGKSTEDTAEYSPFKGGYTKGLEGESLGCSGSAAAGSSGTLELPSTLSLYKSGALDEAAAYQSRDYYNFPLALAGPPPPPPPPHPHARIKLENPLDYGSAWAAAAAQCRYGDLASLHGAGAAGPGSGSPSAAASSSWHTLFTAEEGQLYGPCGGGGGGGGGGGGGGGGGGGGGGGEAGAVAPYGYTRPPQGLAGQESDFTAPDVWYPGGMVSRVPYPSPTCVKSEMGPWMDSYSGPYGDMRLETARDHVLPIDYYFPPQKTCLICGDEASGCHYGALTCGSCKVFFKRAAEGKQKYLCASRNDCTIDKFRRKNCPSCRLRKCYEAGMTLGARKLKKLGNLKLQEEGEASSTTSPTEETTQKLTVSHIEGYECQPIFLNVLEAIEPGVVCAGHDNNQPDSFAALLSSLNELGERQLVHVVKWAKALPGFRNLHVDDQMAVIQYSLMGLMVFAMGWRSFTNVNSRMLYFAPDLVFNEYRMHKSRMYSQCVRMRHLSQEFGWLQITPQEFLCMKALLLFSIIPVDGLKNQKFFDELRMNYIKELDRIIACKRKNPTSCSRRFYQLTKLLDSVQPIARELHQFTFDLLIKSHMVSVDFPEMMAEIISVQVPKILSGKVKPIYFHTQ
assay.remarks: Transcription assay (ARE-luciferase reporter) in CV-1 cells, AR W741L
assay.endpoint: IC50 (µM)
Numbers only, in µM.

CC(O)(CS(=O)(=O)c1ccccc1-c1ccccc1O)C(=O)Nc1ccc(C#N)c(C(F)(F)F)c1 (stereo not shown)	5.8
CN(C)CCCOc1cccc(-c2ccccc2S(=O)(=O)CC(C)(O)C(=O)Nc2ccc(C#N)c(C(F)(F)F)c2)c1 (stereo not shown)	12.2

// for each compound below, give its IC50
1. CN(C)CCCOc1cccc(Cc2ccccc2S(=O)(=O)CC(C)(O)C(=O)Nc2ccc(C#N)c(C(F)(F)F)c2)c1 (stereo not shown)
2. CN(C)CCCOc1ccc(-c2ccccc2S(=O)(=O)CC(C)(O)C(=O)Nc2ccc(C#N)c(C(F)(F)F)c2)cc1 (stereo not shown)

A.
[3, 11]
